Target: acetylcholine receptor
Assay: SPR, peptide at 10 uM, acetylcholine receptor immobilized on chip
quantity: Binding affinity (RU)
Unit RU implied. Number only.

Record excerpt, results attached:
RMKWK [5mer-644] | 24
KCDHK [5mer-637] | 28
RKEPK [5mer-603] | 27
RAWDR [5mer-642] | 22
RMNGR [5mer-635] | 21

Please report the measured Binding affinity (RU) for RECFK [5mer-605] 22

Please report the measured Binding affinity (RU) for KMCDR [5mer-625] 33

Please report the measured Binding affinity (RU) for RNHKR [5mer-936] 29

Please report the measured Binding affinity (RU) for RTAWK [5mer-932] 27

Please report the measured Binding affinity (RU) for KMSPK [5mer-627] 30

Where do these numbers come from? They come from patent US20250011363A1.
